target: human JAK3 (a.a. 781-1124) (Homo sapiens); construct: JAK3 (a.a. 781-1124); His tag (N); made in house; host or cells: insect cells (baculovirus); test: In vitro JAK kinase assay (HTRF, phosphorylation of a biotinylated peptide), JAK3; type: biochemical; conditions: Table B1
Sequence (P52333 781-1124): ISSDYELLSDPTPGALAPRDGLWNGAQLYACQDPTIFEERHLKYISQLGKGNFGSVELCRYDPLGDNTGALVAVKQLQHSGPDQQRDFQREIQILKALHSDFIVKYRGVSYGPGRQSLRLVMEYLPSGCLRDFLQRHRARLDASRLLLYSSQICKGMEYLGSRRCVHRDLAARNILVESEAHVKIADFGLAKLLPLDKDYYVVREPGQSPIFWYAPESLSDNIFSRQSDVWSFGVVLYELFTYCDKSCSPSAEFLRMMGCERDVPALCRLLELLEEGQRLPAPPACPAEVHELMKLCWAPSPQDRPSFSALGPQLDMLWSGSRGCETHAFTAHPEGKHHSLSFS
Counter-ions that a name gives are not always drawn.
EXPERIMENTAL_ENDPOINT: IC50

>>> readout_value("O=C(Nc1ccc2cc1CCc1cncc(c1)Nc1ncc(Cl)c(n1)N2)N1CCN(c2ccccc2)CC1 [Example B292, tris(trifluoroacetate)]")
"> 0.2 µM"
>>> readout_value("COC(=O)c1cc2cc(c1)Nc1nc(ncc1Cl)Nc1cccc(c1)CC2 [Example B5, trifluoroacetate]")
"0.083 µM"
>>> readout_value("CN(C(=O)Nc1ccc2cc1CCc1cccc(c1)Nc1ncc(Cl)c(n1)N2)[C@H]1CCN(Cc2ccccc2)C1")
"> 1 µM"
>>> readout_value("N#Cc1cccnc1N1CCN(C(=O)Nc2ccc3cc2CCc2cncc(c2)Nc2ncc(Cl)c(n2)N3)CC1 [Example B311, tris(trifluoroacetate)]")
"> 0.4 µM"
>>> readout_value("N#Cc1ccccc1N1CCN(C(=O)Nc2ccc3cc2CCc2cncc(c2)Nc2ncc(Cl)c(n2)N3)CC1 [Example B300, tris(trifluoroacetate)]")
"> 0.4 µM"
>>> readout_value("CN(Cc1ccc2cc1CCc1cncc(c1)Nc1ncc(Cl)c(n1)N2)CC1CCN(C(=O)Nc2cccnc2)CC1 [Example B348, (trifluoroacetate)]")
"> 0.4 µM"

###

biological target: human JAK1 (a.a. 837-1142) (Homo sapiens); construct: human JAK1 (a.a. 837-1142); His tag (N); made in house; host or cells: insect cells (baculovirus); experiment: In vitro JAK kinase assay (HTRF, phosphorylation of a biotinylated peptide), JAK1; type: biochemical; settings: Table B1; read-out: JAK1 IC50
Counter-ions that a name gives are not always drawn.
Rule: IC50 below 50 nM gives satisfied. Equal to or above 50 nM gives not satisfied.

>>> label_class("Cn1cccc1C(=O)Nc1ccc2cc1CCc1cccc(c1)Nc1ncc(Cl)c(n1)N2 [Example B50, trifluoroacetate]")
"satisfied"
>>> label_class("O=C(Nc1ccc2cc1CCc1cncc(c1)Nc1ncc(Cl)c(n1)N2)N1CCC(c2cnccn2)C1 (stereo not shown) [Example B313, (trifluoroacetate)]")
"satisfied"
>>> label_class("O=C(Nc1ccc2cc1CCc1cncc(c1)Nc1ncc(Cl)c(n1)N2)N1CCN(c2ccncc2)CC1 [Example B293, (trifluoroacetate)]")
"not satisfied"
>>> label_class("O=C(Nc1cccc(F)c1)Nc1cc2cc(c1)Nc1nc(ncc1Cl)Nc1cccc(c1)CC2 [Example B214, trifluoroacetate]")
"not satisfied"
>>> label_class("Clc1cccc(N2CCN(Cc3cc4cc(c3)Nc3nc(ncc3Cl)Nc3cccc(c3)CC4)CC2)n1 [Example B217, tris(trifluoroacetate)]")
"not satisfied"
>>> label_class("O=C(Nc1ccc2cc1CCc1cccc(c1)Nc1ncc(Cl)c(n1)N2)c1cccc(F)c1 [Example B48, trifluoroacetate]")
"satisfied"
>>> label_class("O=C(Nc1ccc2cc1CCc1cccc(c1)Nc1ncc(Cl)c(n1)N2)NC1CCCCC1 [Example B119, trifluoroacetate]")
"satisfied"
>>> label_class("O=C(Nc1cc2cc(c1)Nc1nc(ncc1Cl)Nc1cccc(c1)CC2)C1CCC1 [Example B211, trifluoroacetate]")
"not satisfied"
>>> label_class("O=C(Nc1ccc2cc1CCc1cccc(c1)Nc1ncc(Cl)c(n1)N2)NC1CC1 [Example B240, trifluoroacetate]")
"satisfied"
>>> label_class("COc1ccc(S(=O)(=O)Nc2ccc3cc2CCc2cccc(c2)Nc2ncc(Cl)c(n2)N3)cc1 [Example B156, trifluoroacetate]")
"satisfied"
>>> label_class("O=C(Nc1ccc2cc1CCc1cncc(c1)Nc1ncc(Cl)c(n1)N2)N1CCN2CCCC2C1 (stereo not shown) [Example B315, tris(trifluoroacetate)]")
"satisfied"
>>> label_class("O=C(Nc1nnn[nH]1)Nc1ccc2cc1CCc1cccc(c1)Nc1ncc(Cl)c(n1)N2 [Example B251, trifluoroacetate]")
"not satisfied"
>>> label_class("Cc1ncoc1C(=O)N1CCC(CN(C)Cc2ccc3cc2CCc2cncc(c2)Nc2ncc(Cl)c(n2)N3)CC1 [Example B347, tris(trifluoroacetate)]")
"not satisfied"
>>> label_class("N#CNC(=O)Nc1ccc2cc1CCc1cccc(c1)Nc1ncc(Cl)c(n1)N2 [Example B323, trifluoroacetate]")
"satisfied"
>>> label_class("O=C(O)c1cc2cc(c1)Nc1nc(ncc1Cl)Nc1cccc(c1)CC2 [Example B6, trifluoroacetate]")
"not satisfied"
>>> label_class("O=S(=O)(Nc1ccc2cc1CCc1cccc(c1)Nc1ncc(Cl)c(n1)N2)C1CC1 [Example B158, trifluoroacetate]")
"satisfied"

###

molecular target: human JAK2 (a.a. 828-1132) (Homo sapiens, UniProt O60674); construct: JAK2 (a.a. 828-1132); His tag (N); made in house; host or cells: insect cells (baculovirus); experiment: In vitro JAK kinase assay (HTRF, phosphorylation of a biotinylated peptide), JAK2; assay type: biochemical; conditions: Table B1
Sequence (O60674 828-1132): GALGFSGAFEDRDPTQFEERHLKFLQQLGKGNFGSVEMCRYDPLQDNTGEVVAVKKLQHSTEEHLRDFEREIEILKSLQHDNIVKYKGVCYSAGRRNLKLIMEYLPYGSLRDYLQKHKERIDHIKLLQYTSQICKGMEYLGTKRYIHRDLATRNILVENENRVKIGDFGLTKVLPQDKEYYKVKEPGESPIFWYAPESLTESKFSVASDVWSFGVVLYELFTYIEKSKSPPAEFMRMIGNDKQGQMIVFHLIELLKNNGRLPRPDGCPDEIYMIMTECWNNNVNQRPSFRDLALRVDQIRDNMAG
Counter-ions that a name gives are not always drawn.
Label satisfied when IC50 is strictly below 7 nM; otherwise label not satisfied.

>>> label_class("O=C(Nc1ccc2cc1CCc1cncc(c1)Nc1ncc(Cl)c(n1)N2)N1CCN(C(=O)c2ccccc2)CC1 [Example B286, bis(trifluoroacetate)]")
"not satisfied"
>>> label_class("CC(C)(C)OC(=O)N1CC[C@H](NC(=O)Nc2ccc3cc2CCc2cccc(c2)Nc2ncc(Cl)c(n2)N3)C1")
"not satisfied"
>>> label_class("CC(C)(C)c1ccc(C(=O)Nc2ccc3cc2CCc2cccc(c2)Nc2ncc(Cl)c(n2)N3)cc1 [Example B73, trifluoroacetate]")
"not satisfied"
>>> label_class("Cc1ncoc1C(=O)N1CCC(CN(C)Cc2ccc3cc2CCc2cncc(c2)Nc2ncc(Cl)c(n2)N3)CC1 [Example B347, tris(trifluoroacetate)]")
"not satisfied"
>>> label_class("O=S(=O)(Nc1ccc2cc1CCc1cccc(c1)Nc1ncc(Cl)c(n1)N2)c1ccc(C(F)(F)F)cc1 [Example B162, trifluoroacetate]")
"satisfied"
>>> label_class("O=S(=O)(Nc1ccc2cc1CCc1cccc(c1)Nc1ncc(Cl)c(n1)N2)c1cccs1 [Example B146, trifluoroacetate]")
"satisfied"
>>> label_class("O=C(Nc1cccc(N2CCOCC2)n1)Nc1ccc2cc1CCc1cccc(c1)Nc1ncc(Cl)c(n1)N2 [Example B133, bis(trifluoroacetate)]")
"not satisfied"
>>> label_class("Cn1ccc(C(=O)Nc2cc3cc(c2)Nc2nc(ncc2Cl)Nc2cccc(c2)CC3)n1 [Example B207, trifluoroacetate]")
"not satisfied"
>>> label_class("O=S(=O)(Nc1ccc2cc1CCc1cccc(c1)Nc1ncc(Cl)c(n1)N2)c1ccc(Cl)cc1 [Example B139, trifluoroacetate]")
"satisfied"
>>> label_class("O=C(Nc1ccc2cc1CCc1cccc(c1)Nc1ncc(Cl)c(n1)N2)c1ccc(Cl)nc1 [Example B69, bis(trifluoroacetate)]")
"satisfied"
>>> label_class("N#Cc1ccc(S(=O)(=O)Nc2ccc3cc2CCc2cccc(c2)Nc2ncc(Cl)c(n2)N3)cc1 [Example B154, trifluoroacetate]")
"satisfied"
>>> label_class("O=C(Nc1ccc2cc1CCc1cccc(c1)Nc1ncc(Cl)c(n1)N2)c1ccccn1 [Example B37, bis(trifluoroacetate)]")
"not satisfied"
>>> label_class("O=C(NCCN1CCCC1=O)Nc1ccc2cc1CCc1cccc(c1)Nc1ncc(Cl)c(n1)N2 [Example B257, trifluoroacetate]")
"not satisfied"

###

target: human JAK1 (a.a. 837-1142) (Homo sapiens, UniProt P23458); construct: human JAK1 (a.a. 837-1142); His tag (N); made in house; host or cells: insect cells (baculovirus); test: In vitro JAK kinase assay (HTRF, phosphorylation of a biotinylated peptide), JAK1; format: biochemical; settings: Table B1; read-out: JAK1 IC50
Sequence (P23458 849-1154): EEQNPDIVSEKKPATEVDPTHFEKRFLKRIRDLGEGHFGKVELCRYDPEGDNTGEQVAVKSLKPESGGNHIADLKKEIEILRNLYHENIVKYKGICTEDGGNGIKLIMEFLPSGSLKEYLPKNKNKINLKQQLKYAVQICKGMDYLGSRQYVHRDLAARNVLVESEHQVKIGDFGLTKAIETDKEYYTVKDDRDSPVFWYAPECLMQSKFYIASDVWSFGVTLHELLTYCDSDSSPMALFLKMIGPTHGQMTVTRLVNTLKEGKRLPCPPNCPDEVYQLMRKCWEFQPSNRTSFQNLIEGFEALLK
pIC50: −log10 of the molar value. Where a name gives a salt, the structure may show the parent alone.
EXPERIMENTAL_ENDPOINT: pIC50

>>> readout_value("O=C(Nc1ccc2cc1CCc1cccc(c1)Nc1ncc(Cl)c(n1)N2)C1CC1 [Example B27, trifluoroacetate]")
8.28
>>> readout_value("O=C(Nc1ccc2cc1CCc1cncc(c1)Nc1ncc(Cl)c(n1)N2)N1CCN(c2ccccc2F)CC1 [Example B295, tris(trifluoroacetate)]")
7.52
>>> readout_value("Cc1ccccc1NC(=O)Nc1ccc2cc1CCc1cccc(c1)Nc1ncc(Cl)c(n1)N2 [Example B91, trifluoroacetate]")
8.68
>>> readout_value("O=C(Nc1ccc2cc1CCc1cccc(c1)Nc1ncc(Cl)c(n1)N2)N[C@H]1CCN(C(=O)c2ccccc2)C1 [Example B170, trifluoroacetate]")
8.80
>>> readout_value("Cn1cnc(S(=O)(=O)Nc2ccc3cc2CCc2cccc(c2)Nc2ncc(Cl)c(n2)N3)c1 [Example B144, bis(trifluoroacetate)]")
9.47
>>> readout_value("Nc1cc2cc(c1)Nc1nc(ncc1Cl)Nc1cccc(c1)CC2 [Example B21, bis(trifluoroacetate)]")
7.74
>>> readout_value("COc1cccc(CN2CCN(Cc3cc4cc(c3)Nc3nc(ncc3Cl)Nc3cccc(c3)CC4)CC2)c1 [Example B198, tris(trifluoroacetate)]")
7.41
>>> readout_value("CS(=O)(=O)N1CCN(C(=O)Nc2ccc3cc2CCc2cncc(c2)Nc2ncc(Cl)c(n2)N3)CC1 [Example B318, bis(trifluoroacetate)]")
7.62

Every entry's value here was drawn from patent US8871753B2.
